Measured koff, listed per entry.
Target: T1, human PACAP27 (human, C-terminal leucine is amidated; 125I-labelled in Example 10)
T1 peptide: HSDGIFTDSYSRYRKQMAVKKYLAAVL
Experiment: SPR, Ab immobilised
Give the value, in units of s⁻¹, as a plain number.

anti-PACAP antibody Ab11 (antibody, human IgG1, kappa, N297A, V domains shown, full-length rabbit/human chimeric antibody) VH: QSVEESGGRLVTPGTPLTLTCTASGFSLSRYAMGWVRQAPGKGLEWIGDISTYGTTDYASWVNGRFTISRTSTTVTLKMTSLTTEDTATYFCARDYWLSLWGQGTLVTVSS VL: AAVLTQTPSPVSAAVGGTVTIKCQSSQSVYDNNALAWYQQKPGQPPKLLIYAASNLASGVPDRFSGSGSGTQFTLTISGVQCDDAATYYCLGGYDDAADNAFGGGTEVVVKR    0.00011
anti-PACAP antibody Ab23 (antibody, human IgG1, kappa, N297A, V domains shown, full-length rabbit/human chimeric antibody; PACAP38 specific) VH: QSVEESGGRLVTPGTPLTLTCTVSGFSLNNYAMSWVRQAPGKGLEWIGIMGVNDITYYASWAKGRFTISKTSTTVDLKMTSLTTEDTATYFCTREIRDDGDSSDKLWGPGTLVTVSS VL: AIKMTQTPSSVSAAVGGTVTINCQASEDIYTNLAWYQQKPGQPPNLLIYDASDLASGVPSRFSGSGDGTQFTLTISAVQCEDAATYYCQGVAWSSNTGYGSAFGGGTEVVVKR    0.031

Quick one: koff of anti-PACAP antibody Ab3.H (antibody, human IgG1, kappa, N297A, V domains shown, humanized form of Ab3, full length) VH: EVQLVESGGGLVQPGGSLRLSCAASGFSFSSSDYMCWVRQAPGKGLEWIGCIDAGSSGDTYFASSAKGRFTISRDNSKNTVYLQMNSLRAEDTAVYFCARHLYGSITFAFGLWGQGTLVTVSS VL: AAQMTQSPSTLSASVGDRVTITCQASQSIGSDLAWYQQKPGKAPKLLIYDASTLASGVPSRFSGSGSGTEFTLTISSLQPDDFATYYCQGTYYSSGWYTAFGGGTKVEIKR ?
0.00034
